Taken from the supplement of paper PMC9112550.

tested on: Escherichia coli TOP10; experiment: shrunken log2 fold change of peptide-encoding DNA abundance (4.5 h post-induction vs induction); higher = less antimicrobial activity (less host growth inhibition); details: time post-induction: 4.5 h; library: site-saturation at positions 5, 18, 19, 20
# class assignment by measured shrunken log2 fold change: c1 (below -0.2), c2 (-0.2 to below 0.01), c3 (0.01 or more)

chain.sequence	study.target	assigned.label
RRIRLRPPRLPRPRPRPHPKPRP	Escherichia coli TOP10	c2
RRIRCRPPRLPRPRPRPMMLPRP	Escherichia coli TOP10	c2
RRIRVRPPRLPRPRPRPMWYPRP	Escherichia coli TOP10	c1
RRIRTRPPRLPRPRPRPYGEPRP	Escherichia coli TOP10	c2
RRIRQRPPRLPRPRPRPEVTPRP	Escherichia coli TOP10	c2
RRIRARPPRLPRPRPRPWPWPRP	Escherichia coli TOP10	c3
RRIRERPPRLPRPRPRPNTFPRP	Escherichia coli TOP10	c1
RRIRSRPPRLPRPRPRPKYNPRP	Escherichia coli TOP10	c1
RRIRCRPPRLPRPRPRPHFMPRP	Escherichia coli TOP10	c1
RRIRPRPPRLPRPRPRPEHIPRP	Escherichia coli TOP10	c3
RRIRGRPPRLPRPRPRPECIPRP	Escherichia coli TOP10	c3
RRIRNRPPRLPRPRPRPTAHPRP	Escherichia coli TOP10	c3
RRIRKRPPRLPRPRPRPQTMPRP	Escherichia coli TOP10	c3
RRIRARPPRLPRPRPRPSWCPRP	Escherichia coli TOP10	c1
RRIRQRPPRLPRPRPRPQMVPRP	Escherichia coli TOP10	c2

###

system: Escherichia coli TOP10; assay: shrunken log2 fold change of peptide-encoding DNA abundance (4.5 h post-induction vs induction); higher = less antimicrobial activity (less host growth inhibition); conditions: time post-induction: 4.5 h; library: site-saturation at positions 5, 18, 19, 20
Use yes (1) when the recorded shrunken log2 fold change is no lower than -0.1; use no (0) when it is lower.

chain.sequence	study.target	assigned.label
RRIRDRPPRLPRPRPRPNQQPRP	Escherichia coli TOP10	no (0)
RRIRDRPPRLPRPRPRPGQLPRP	Escherichia coli TOP10	no (0)
RRIRHRPPRLPRPRPRPHWQPRP	Escherichia coli TOP10	yes (1)
RRIRQRPPRLPRPRPRPDFDPRP	Escherichia coli TOP10	yes (1)
RRIRNRPPRLPRPRPRPQIRPRP	Escherichia coli TOP10	yes (1)
RRIRERPPRLPRPRPRPGAFPRP	Escherichia coli TOP10	yes (1)
RRIRARPPRLPRPRPRPLKWPRP	Escherichia coli TOP10	yes (1)
RRIRLRPPRLPRPRPRPSSPPRP	Escherichia coli TOP10	no (0)

###

// reported shrunken log2 fold change for each item listed
system: Escherichia coli TOP10; assay: shrunken log2 fold change of peptide-encoding DNA abundance (4.5 h post-induction vs induction); higher = less antimicrobial activity (less host growth inhibition); conditions: time post-induction: 4.5 h; library: site-saturation at positions 5, 18, 19, 20
observation.type: shrunken log2 fold change

chain.sequence	observation.type	recorded.number
RRIRRRPPRLPRPRPRPPSYPRP	shrunken log2 fold change	0.26
RRIRWRPPRLPRPRPRPGEHPRP	shrunken log2 fold change	0.232
RRIRLRPPRLPRPRPRPFLSPRP	shrunken log2 fold change	-0.643
RRIRQRPPRLPRPRPRPKYDPRP	shrunken log2 fold change	-0.165
RRIRPRPPRLPRPRPRPRFLPRP	shrunken log2 fold change	0.146
RRIRFRPPRLPRPRPRPQNPPRP	shrunken log2 fold change	-0.231
RRIRLRPPRLPRPRPRPGTNPRP	shrunken log2 fold change	-0.0983
RRIRPRPPRLPRPRPRPTDTPRP	shrunken log2 fold change	-0.00249
RRIRVRPPRLPRPRPRPTCQPRP	shrunken log2 fold change	-0.035
RRIRYRPPRLPRPRPRPWGFPRP	shrunken log2 fold change	-0.167
RRIRNRPPRLPRPRPRPQHGPRP	shrunken log2 fold change	-0.0487
RRIRHRPPRLPRPRPRPAWYPRP	shrunken log2 fold change	-0.0318
RRIRLRPPRLPRPRPRPKNTPRP	shrunken log2 fold change	-0.333
RRIRHRPPRLPRPRPRPLHCPRP	shrunken log2 fold change	-0.519
RRIRRRPPRLPRPRPRPGHKPRP	shrunken log2 fold change	0.0528

###

system: Escherichia coli TOP10; test: shrunken log2 fold change of peptide-encoding DNA abundance (4.5 h post-induction vs induction); higher = less antimicrobial activity (less host growth inhibition); settings: time post-induction: 4.5 h; library: site-saturation at positions 5, 18, 19, 20
# class assignment by measured shrunken log2 fold change: band 1: < -0.3; band 2: ≥ -0.3 and < 0.2; band 3: ≥ 0.2

chain.sequence	assigned.label
RRIRVRPPRLPRPRPRPDTDPRP	band 1
RRIRHRPPRLPRPRPRPVNGPRP	band 2
RRIRERPPRLPRPRPRPQPCPRP	band 1
RRIRGRPPRLPRPRPRPIHFPRP	band 2
RRIRKRPPRLPRPRPRPFVMPRP	band 3
RRIRMRPPRLPRPRPRPIDSPRP	band 2
RRIRIRPPRLPRPRPRPCLTPRP	band 2
RRIRRRPPRLPRPRPRPRWDPRP	band 3
RRIRQRPPRLPRPRPRPVIHPRP	band 1
RRIRLRPPRLPRPRPRPLSIPRP	band 1
RRIRQRPPRLPRPRPRPDMCPRP	band 2
RRIRGRPPRLPRPRPRPIFWPRP	band 3

###

tested on: Escherichia coli TOP10; assay: shrunken log2 fold change of peptide-encoding DNA abundance (4.5 h post-induction vs induction); higher = less antimicrobial activity (less host growth inhibition); details: time post-induction: 4.5 h; library: site-saturation at positions 5, 18, 19, 20
Use Satisfied when the recorded shrunken log2 fold change is no lower than -0.08; use Not satisfied when it is lower.

chain.sequence	study.target	assigned.label
RRIRWRPPRLPRPRPRPGECPRP	Escherichia coli TOP10	Satisfied
RRIRNRPPRLPRPRPRPLMRPRP	Escherichia coli TOP10	Satisfied
RRIRERPPRLPRPRPRPAVVPRP	Escherichia coli TOP10	Not satisfied
RRIRCRPPRLPRPRPRPLCGPRP	Escherichia coli TOP10	Not satisfied
RRIRKRPPRLPRPRPRPRIHPRP	Escherichia coli TOP10	Not satisfied
RRIRDRPPRLPRPRPRPQFSPRP	Escherichia coli TOP10	Satisfied
RRIRDRPPRLPRPRPRPRMWPRP	Escherichia coli TOP10	Satisfied
RRIRNRPPRLPRPRPRPTAWPRP	Escherichia coli TOP10	Satisfied

###

system: Escherichia coli TOP10; assay: shrunken log2 fold change of peptide-encoding DNA abundance (4.5 h post-induction vs induction); higher = less antimicrobial activity (less host growth inhibition); details: time post-induction: 4.5 h; library: site-saturation at positions 5, 18, 19, 20;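 note: peptides expressed intracellularly from a pBAD plasmid library in pooled LB shake-flask culture, induced with 0.3% L-arabinose, DNA abundance read by NGS, three biological replicates, DESeq2 with apeglm shrinkage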
observation.type: shrunken log2 fold change

chain.sequence	result
RRIRSRPPRLPRPRPRPQNNPRP	-0.573
RRIRNRPPRLPRPRPRPLVIPRP	-0.432
RRIRPRPPRLPRPRPRPHMNPRP	-0.6
RRIRGRPPRLPRPRPRPIDIPRP	-0.0347
RRIRPRPPRLPRPRPRPCQIPRP	-0.0156
RRIRDRPPRLPRPRPRPDHFPRP	-0.0133
RRIRIRPPRLPRPRPRPNIYPRP	-0.111
RRIRERPPRLPRPRPRPRMDPRP	-0.495
RRIRQRPPRLPRPRPRPEHEPRP	0.0155
RRIRNRPPRLPRPRPRPLEPPRP	0.0692
RRIRDRPPRLPRPRPRPLCCPRP	0.0616
RRIRDRPPRLPRPRPRPEYLPRP	0.0986
RRIRWRPPRLPRPRPRPGQWPRP	0.032
RRIRQRPPRLPRPRPRPTGQPRP	0.146
RRIRHRPPRLPRPRPRPCKDPRP	-0.332
RRIRKRPPRLPRPRPRPNWGPRP	0.308
RRIRFRPPRLPRPRPRPMKDPRP	-0.47
RRIRSRPPRLPRPRPRPQFMPRP	-0.274
RRIRERPPRLPRPRPRPKGGPRP	-0.0194
RRIRNRPPRLPRPRPRPVNSPRP	0.0303
RRIRVRPPRLPRPRPRPCHYPRP	-0.0563
RRIRQRPPRLPRPRPRPVRDPRP	0.556
RRIRPRPPRLPRPRPRPGTEPRP	-0.0123
RRIRMRPPRLPRPRPRPPVAPRP	1.3
RRIRVRPPRLPRPRPRPKNDPRP	0.011
RRIRLRPPRLPRPRPRPPHGPRP	0.223
RRIRYRPPRLPRPRPRPTAMPRP	0.133
RRIRNRPPRLPRPRPRPSGMPRP	-0.207
RRIRHRPPRLPRPRPRPQMRPRP	0.209
RRIRRRPPRLPRPRPRPGVPPRP	0.264
RRIRHRPPRLPRPRPRPSTQPRP	-0.0473
RRIRRRPPRLPRPRPRPRMPPRP	0.381
